The origin of these recorded values is ChEMBL document CHEMBL1122546.

# reported Ki; entries follow
biological target: Thymidylate synthase (Homo sapiens); experiment: Inhibitory activity against human thymidylate synthase with variable concentration of dUMP and fixed N5,10-CH2-H4PteGlu (200 uM)
Sequence (P04818 whole entry): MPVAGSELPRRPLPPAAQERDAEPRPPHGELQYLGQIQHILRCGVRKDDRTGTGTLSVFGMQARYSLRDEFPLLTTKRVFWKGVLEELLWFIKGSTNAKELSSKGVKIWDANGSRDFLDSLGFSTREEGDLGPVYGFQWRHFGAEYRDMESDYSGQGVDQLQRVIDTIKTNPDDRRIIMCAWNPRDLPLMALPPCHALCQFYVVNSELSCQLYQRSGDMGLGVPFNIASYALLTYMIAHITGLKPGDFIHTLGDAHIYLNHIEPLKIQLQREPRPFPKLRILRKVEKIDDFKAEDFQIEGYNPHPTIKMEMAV
ENDPOINT: Ki (µM)

>  <COMPOUND>
Nc1nc2c(c(=O)[nH]1)N(Cc1cn([C@H]3C[C@H](O)[C@@H](CO)O3)c(=O)[nH]c1=O)C(CNc1ccc(C(=O)NC(CCC(=O)O)C(=O)O)cc1)CC2 (some centres undefined)

>  <ENDPOINT>
Ki

>  <VALUE_MEASURED>
150

$$$$
>  <COMPOUND>
CCOC(=O)CCC(NC(=O)c1ccc(N(CC2CCc3nc(N)[nH]c(=O)c3N2)N=O)cc1)C(=O)OCC (centres undefined)

>  <ENDPOINT>
Ki

>  <VALUE_MEASURED>
240

$$$$
>  <COMPOUND>
COP(=O)(O)OC[C@H]1O[C@@H](n2cc(CN3c4c(nc(N)[nH]c4=O)CCC3CNc3ccc(C(=O)NC(CCC(=O)O)C(=O)O)cc3)c(=O)[nH]c2=O)C[C@@H]1O (some centres undefined)

>  <ENDPOINT>
Ki

>  <VALUE_MEASURED>
120

$$$$
>  <COMPOUND>
Nc1nc2c(c(=O)[nH]1)N(Cc1cn([C@H]3C[C@H](O)[C@@H](COP(O)O)O3)c(=O)[nH]c1=O)C(CNc1ccc(C(=O)NC(CCC(=O)O)C(=O)O)cc1)CC2 (some centres undefined)

>  <ENDPOINT>
Ki

>  <VALUE_MEASURED>
0.058

$$$$
